Provenance of the data: PubChem BioAssay (NCI)

- Test system: RPMI-8226 leukemia
- assayRemarks: NCI-60 one-dose screen, 48 h
- studyConditions: 10 µM unless noted
About 83,000 compounds went through this panel and 20% of them were active in at least one assay; those are over-represented in the sample as a whole. Calls of active or inactive are those of the source. How the source made its calls: active means growth percent below 10; inactive means the rest.
Mark one answer only. Choices: true (1) = active, false (0) = inactive

What call does the record list for CC1=CC(=Nc2ccc(N(CCCl)CCCl)cc2)C=C(C)C1=O ?
true (1)

Turning to the following compound.
Per the records of this test, what outcome belongs to O=C1CCCCC1CN1CCCCC1 (stereo unspecified) ?
false (0)

###

- Test system: HL-60(TB) leukemia
- assayRemarks: NCI-60 one-dose screen, 48 h
- studyConditions: 10 µM unless noted
About 83,000 compounds went through this panel and 20% of them were active in at least one assay; those are over-represented in the sample as a whole. The source made the active and inactive calls. Rule for the calls: active = growth percent below 10; inactive = the rest.
// allowed return values: y = active, n = inactive

Kindly provide the recorded test outcome for the following molecule: CC[C@H](C)[C@H](NC(=O)c1ncccn1)C(=O)N(C)[C@H](C[C@@H](OC(C)=O)c1nc(C(=O)N[C@@H](Cc2ccccc2)C[C@H](C)C(=O)OC)cs1)C(C)C
y

Assay result, entry O=C(NCCCN1CC1)Nc1cccc2ccccc12 — outcome?
n

Consider the record given below.
Called result for Cn1cc(C(=O)C[n+]2ccccc2)c2ccccc21
n
